Hello, the source for this data is patent US8063234B2, in case you need it.

Molecular target: CYP3A4 (Homo sapiens)
Construct: human liver microsomes (pool from various individuals); from tissue; host or cells: human liver microsomes (pool from various individuals)
Assay: Assay to assess irreversible CYP3A4 inhibition (mechanism-based inhibition) in human liver microsomes
Assay type: in vitro ADME
Conditions: 2-20 μM, preincubation 0-50 min, 6β-hydroxytestosterone formation
quantity-name: Partition ratio r

{"compound": "CS(=O)(=O)Cc1cc(F)cc2c(C(c3ccc(C(F)(F)F)cc3F)C3CC3C#N)c[nH]c12 (single isomer, unassigned)", "measurement-target": "CYP3A4 (Homo sapiens)", "Partition ratio r": ">200"}
{"compound": "CS(=O)(=O)Cc1cccc2c(C(c3ccc(F)cc3)c3ccc(C(F)(F)F)cc3)c[nH]c12 (stereo not shown)", "measurement-target": "CYP3A4 (Homo sapiens)", "Partition ratio r": ">500"}
{"compound": "CS(=O)(=O)Cc1cc(F)cc2c(C(c3ccc(F)cc3Cl)C3CC3C#N)c[nH]c12 (single isomer, unassigned)", "measurement-target": "CYP3A4 (Homo sapiens)", "Partition ratio r": ">200"}

Moving on to another compound below.
// query Param item = CS(=O)(=O)Cc1cccc2c(C3(C4CC4)CCc4cc(F)ccc43)c[nH]c12 (stereo not shown) ; retrieve measured Partition ratio r.
// result >400

* * *

Target: CYP3A4 (Homo sapiens)
Construct: human liver microsomes (pool from various individuals); from tissue; host or cells: human liver microsomes (pool from various individuals)
Test: Assay to assess irreversible CYP3A4 inhibition (mechanism-based inhibition) in human liver microsomes
Assay type: in vitro ADME
Conditions: 2-20 μM, preincubation 0-50 min, 6β-hydroxytestosterone formation
quantity-name: Partition ratio r

{"compound": "CS(=O)(=O)Cc1cccc2c(C(c3ccc(F)cc3)c3ccc(Cl)cc3F)c[nH]c12 (single isomer, unassigned)", "Partition ratio r": 250}

[P] CS(=O)(=O)Cc1cccc2c(C(CCC#N)c3ccc(Cl)cc3F)c[nH]c12 (single isomer, unassigned)
[Q] CCC(CCC#N)(c1ccc(Cl)cc1)c1c[nH]c2c(CS(C)(=O)=O)cccc12 (stereo not shown)
// query Sorting by Partition ratio r in descending order, would P or Q appear first? API: response body contains the label of the selected item.
// result P
(P: 220, Q: 120)

* * *

Biological target: CYP3A4 (Homo sapiens, UniProt P08684)
Construct: human liver microsomes (pool from various individuals); from tissue; host or cells: human liver microsomes (pool from various individuals)
Sequence (P08684 whole entry): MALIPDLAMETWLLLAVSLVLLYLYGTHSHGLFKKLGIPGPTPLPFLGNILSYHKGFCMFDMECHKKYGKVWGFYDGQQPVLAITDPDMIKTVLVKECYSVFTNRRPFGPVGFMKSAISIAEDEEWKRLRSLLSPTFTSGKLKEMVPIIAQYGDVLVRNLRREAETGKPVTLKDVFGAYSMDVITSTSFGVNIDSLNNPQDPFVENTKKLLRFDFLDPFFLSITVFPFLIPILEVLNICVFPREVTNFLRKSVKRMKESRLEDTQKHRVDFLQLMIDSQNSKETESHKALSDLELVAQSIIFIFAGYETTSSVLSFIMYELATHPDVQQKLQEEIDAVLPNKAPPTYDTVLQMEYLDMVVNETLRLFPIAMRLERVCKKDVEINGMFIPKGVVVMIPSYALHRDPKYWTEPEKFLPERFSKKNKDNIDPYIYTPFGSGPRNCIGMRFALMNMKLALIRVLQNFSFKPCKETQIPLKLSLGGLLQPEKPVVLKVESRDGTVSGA
Assay: Assay to assess irreversible CYP3A4 inhibition (mechanism-based inhibition) in human liver microsomes
Format: in vitro ADME
Settings: 2-20 μM, preincubation 0-50 min, 6β-hydroxytestosterone formation
Experimental: 8. Assay to Assess Irreversible CYP3A4 Inhibition […] The compounds of the invention are incubated with concentrations of 2-20 μM. […] The samples stopped in this way are either analyzed directly or stored at −20° C. until analyzed. The analysis takes place by high performance liquid chromatography with mass spectrometry detection (LC-MS). The formation of 6β-hydroxytestosterone as measure of CYP3A4 activity, and the test substance still remaining is quantified. […]
quantity-name: Partition ratio r

{"molecule": "CCC(CCO)(c1ccc(Cl)cc1)c1c[nH]c2c(CS(C)(=O)=O)cccc12 (stereo not drawn)", "measurement-target": "CYP3A4 (Homo sapiens, UniProt P08684)", "Partition ratio r": 90}
{"molecule": "CS(=O)(=O)Cc1cccc2c(C(CCC#N)c3ccc(C(F)(F)F)cc3)c[nH]c12 (single isomer, unassigned)", "measurement-target": "CYP3A4 (Homo sapiens, UniProt P08684)", "Partition ratio r": 100}

* * *

Each entry below lists one item and its recorded Partition ratio r value.
Biological target: CYP3A4 (Homo sapiens, UniProt P08684)
Construct: human liver microsomes (pool from various individuals); from tissue; host or cells: human liver microsomes (pool from various individuals)
Test: Assay to assess irreversible CYP3A4 inhibition (mechanism-based inhibition) in human liver microsomes
Type: in vitro ADME
Conditions: 2-20 μM, preincubation 0-50 min, 6β-hydroxytestosterone formation

{"compound": "CS(=O)(=O)Cc1cc(F)cc2c(C(c3ccc(Cl)cc3F)C3CC3C#N)c[nH]c12 (single isomer, unassigned)", "recorded-result": ">200"}
{"compound": "CS(=O)(=O)Cc1cccc2c(C(CCC#N)c3ccc4c(c3)OC(F)(F)O4)c[nH]c12 (stereo not shown)", "recorded-result": ">500"}
{"compound": "CS(=O)(=O)Cc1cccc2c(C(CCC#N)c3ccc4sccc4c3)c[nH]c12 (stereo not shown)", "recorded-result": ">500"}

// query Param item = CS(=O)(=O)Cc1cccc2c(C(c3ccc(Cl)cc3)C3CC3(F)F)c[nH]c12 (single isomer, unassigned) ; retrieve measured Partition ratio r.
// result >200
